Tested on: Escherichia coli EC-14
Test details: Protection test in mice challenged intraperitoneally with Escherichia coli EC-14
Type: in vivo
Condition: Escherichia coli, EC14, sc, 168 h, subcutaneous in 0.7% aqueous sodium hydrogen carbonate 1 and 5 hours after challenge, survival 7 days, control for ester, read-out: ED50 of Acid (2) subc.
Procedure: To each group consisting of 5 to 10 mice is challenged 2 to 3×10^5 Escherichia coli EC-14 in 5% mucin intraperitoneally. After 1 hour and 5 hours, a suspension of the ester (1) in the foregoing experiment in 5% acacia solution is administered enterally using a tube into stomach. From the survival rate after 7 days, ED50 of the drug is calculated, and the value in mg/kg is interpreted as the corresponding carboxylic acid. […]
Observed property: ED50
Put your answer as a value accompanied by its unit after it.

Below, each entry is followed by its recorded ED50 result.
- Compound: "CCC(C#N)C(=O)N[C@]1(OC)C(=O)N2C(C(=O)O)=C(CSc3nnc(C)s3)CO[C@@H]21 (stereo partly drawn) [11 (Acid (2))]"
  ED50: "0.87 mg/kg"
- Compound: "CCC(C#N)C(=O)N[C@]1(OC)C(=O)N2C(C(=O)O)=C(CSc3nncs3)CO[C@@H]21 (stereo partly drawn) [9 (Acid (2))]"
  ED50: "0.77 mg/kg"
- Compound: "CO[C@@]1(NC(=O)C(C)C#N)C(=O)N2C(C(=O)O)=C(CSc3nnnn3C)CO[C@@H]21 (stereo partly drawn) [1 (Acid (2))]"
  ED50: "1.68 mg/kg"
- Compound: "CCCCC(C#N)C(=O)N[C@]1(OC)C(=O)N2C(C(=O)O)=C(CSc3nnnn3C)CO[C@@H]21 (stereo partly drawn) [4 (Acid (2))]"
  ED50: "3.18 mg/kg"
- Compound: "CCCC(C#N)C(=O)N[C@]1(OC)C(=O)N2C(C(=O)O)=C(CSc3nnnn3C)CO[C@@H]21 (stereo partly drawn) [3 (Acid (2))]"
  ED50: "0.6 mg/kg"

As a next step, examine the compound that follows.
**Query** Recorded ED50 of CCC(C#N)C(=O)N[C@]1(OC)C(=O)N2C(C(=O)O)=C(CSc3nnnn3C)CO[C@@H]21 (stereo partly drawn) [2 (Acid (2))] , please.
**Result** 0.47 mg/kg
